System: 5α-reductase
Test: 5α-reductase inhibitory efficacy: DHT produced in testosterone-stimulated dermal papilla cells (DHT ELISA)
Assay type: cell-based
Conditions: sample concentration 50 μg/ml, 50 nM testosterone, 24 hours, produced DHT relative to control
// reported 5α-reductase inhibitory rate (%) per item
# output: numeric value plus its unit

Field: example entries. Status: answers known.
C/C=C(\CC[C@@H](C)[C@H]1CC[C@H]2[C@@H]3CC=C4C[C@@H](OCCCCCCCC)CC[C@]4(C)[C@H]3CC[C@]12C)C(C)C [Compound in Example 72, O-octyl-fucosterol]: 35%
CCCCCOC1CCC2(C)C(CCC3(C)C2CC=C2C4CC(C)(C)CCC4(C)CCC23C)C1(C)C (stereo not drawn) [Compound in Example 51, O-pentyl-β-amyrin]: 38%
CCCCCCCCOC1CCC2(C)C(=CCC3C2CCC2(C)C(C(C)CCC(CC)C(C)C)CCC32)C1 (stereo not drawn) [Compound in Example 57, O-octyl-β-sitosterol]: 41%

Prompt line: Value lookup for 5α-reductase inhibitory rate (%); key = CCCCCCCCCCCCCCCCCCOC1CCC2(C)C(CCC3(C)C2CC=C2C4C(C)C(C)CCC4(C(=O)O)CCC23C)C1(C)C (stereo not drawn) [Compound in Example 60, O-octadecyl-ursolic acid]
Response line: 49%

Prompt line: # query: 5α-reductase inhibitory rate (%) of entry C[C@]12CC[C@H](O)CC1=CC[C@@H]1[C@@H]2CC[C@]2(C)C(=O)CC[C@@H]12 [Compound in Example 36, dihydroandrosterone]
Response line: 28%

Prompt line: Any idea what its 5α-reductase inhibitory rate (%) is? The compound is CCCCC(CC)C(=O)OC1CCC2(C)C(CCC3(C)C2CC=C2C4CC(C)(C)CCC4(C)CCC23C)C1(C)C (stereo not drawn) [Compound in Example 4, β-amyrin 2-ethylhexanoate]
Response line: 54%
